Values were extracted from PubChem BioAssay AID651706.

Experiment: differentiation of ER-HoxA9 arrested myeloid cells – cell-based, GFP/Mac1 flow cytometry, cherry pick 01, confirmation (AID 651706);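 on double positive cells: share of live cells carrying both lysozyme GFP and MAC1 staining after four days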
Settings: ER-HoxA9 myeloid progenitors, stronger effect = higher value; measured here: percent double positive cells
The whole screen tested about 2,300 compounds, of which about 55 (2%) were called active. Only a sample is shown.
Below, each entry is listed alongside its reported double positive cells.
Enter your answer as a number in %; do not include the unit.

query: Requested read-out: double positive cells. Entry: CC1=C(C(N)=O)C(c2ccc3c(c2)OCO3)n2nc(-c3cccc(C)c3)nc2N1 (configuration not stated)
result: 5.05

query: Follow-up entry: CCC1CCCCN1CCCNC(=O)Cn1nc(-c2ccccc2)ccc1=O (configuration not stated)
result: 2.25

query: Queued: CC#CC[N+](C)(C)CCCCCC
result: 3.9

###

Experiment: differentiation of ER-HoxA9 arrested myeloid cells – cell-based, GFP/Mac1 flow cytometry, cherry pick 01, confirmation (AID 651706);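 on differentiation response: plate controls were double positive share in DMSO wells for no effect and share in positive control wells for full effect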
Details: ER-HoxA9 myeloid progenitors, stronger effect = higher value; GFP/Mac1 double-positive flow
Screen size: about 2,300 compounds; about 55 (2%) were called active. The list is a sample of the results.
In this section, each of the compounds is paired with its reported differentiation response.
Answer with a number only, understood to be in %.

query: For the compound COC(=O)CN(c1cccc(C(C)=O)c1)S(C)(=O)=O , what differentiation response is on record?
result: 2.05

query: Now the compound O=C(CN(c1ccccc1)S(=O)(=O)c1ccc(Cl)cc1)Nc1ccccc1C(=O)N1CCCC1
result: 2.2

query: Repeat with CC(CNc1ccc([N+](=O)[O-])cc1)NC(=O)c1ccccc1Br (centres undefined)
result: 1.65

Below: the item to evaluate.
query: Given the entry COc1ccc(C2CC(c3cccc(OC)c3)=NN2c2ccc(S(N)(=O)=O)cc2)cc1 (centres undefined) , report its measured differentiation response.
result: 2.25

###

# key: entry, value: differentiation response
Experiment: differentiation of ER-HoxA9 arrested myeloid cells – cell-based, GFP/Mac1 flow cytometry, cherry pick 01, confirmation (AID 651706);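 on differentiation response: plate controls were double positive share in DMSO wells for no effect and share in positive control wells for full effect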
Conditions: ER-HoxA9 myeloid progenitors, stronger effect = higher value; GFP/Mac1 double-positive flow
Among all 2,300 compounds or so, about 55 (2%) were called active. Not all results are given here.
Express it in %; write the number only.

See these solved cases before continuing.
query: Look up differentiation response: Cc1nc(C)c(-c2nnc(-c3cccc(S(=O)(=O)N(C)C)c3)o2)cc1C(=O)NN
result: 4.1

query: // query: Cc1ccc(-c2nc(C#N)c(NCCCn3ccnc3)o2)cc1
result: 1.5

query: Param item: CC(C)CNC(=O)COC(=O)/C=C/c1ccccc1[N+](=O)[O-]
result: 1.45

query: Cc1ccc2c(c1)C1C[N+](C)(CC(=O)c3ccccc3)CCC1N2C(=O)c1ccccc1Cl (stereo not drawn) , same question.
result: 4.1

Next:
query: Param item = O=S(=O)(NCc1cccnc1)c1ccc(Cl)nc1 ; retrieve measured differentiation response.
result: 1.35

query: Again, but for CC(C)C(=O)N1CCN(c2nc(-c3ccccc3)c3c(c2C#N)CC(C)(C)OC3)CC1
result: 1.8

query: Also COc1ccc(-c2nnc(SCC(=O)c3cccs3)o2)c(OC)c1 , if possible.
result: 4.75

###

Assay: differentiation of ER-HoxA9 arrested myeloid cells – cell-based, GFP/Mac1 flow cytometry, cherry pick 01, confirmation (AID 651706);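 on differentiation response: plate controls were double positive share in DMSO wells for no effect and share in positive control wells for full effect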
Conditions: ER-HoxA9 myeloid progenitors, stronger effect = higher value; GFP/Mac1 double-positive flow
In all, about 2,300 compounds went through this assay and about 55 (2%) were called active. Not all results are given here.
MEASURED ATTRIBUTE: differentiation response (%)
Provide only the numeric value, understood in %.

query: # differentiation response lookup, item CCOC(=O)c1c(-c2cccc(C)c2)csc1NC(=O)c1c(-c2ccccc2)noc1C
result: 0.75

query: Cc1cc(C)n(C(=O)c2ccc(C)c(S(=O)(=O)N3CCOCC3)c2)n1 , same question.
result: 1.9

query: And then N#C/C(=C/c1ccc(N2CCCCC2)o1)C(=O)NCCc1c[nH]c2ccccc12 , what is it?
result: 78.8

---
query: Which differentiation response is reported for this molecule? Cn1c2ccccc2c2cc(/C=C(\NC(=O)c3ccccc3)C(=O)NCC(=O)O)ccc21
result: 3.05
